# EXPERIMENT SUMMARY: recombinant UMI read abundance after kanamycin selection (control-corrected) (log10(CPM+1)); higher = more efficient recombination; extreme values may be limits of the assay; sequences stand for … in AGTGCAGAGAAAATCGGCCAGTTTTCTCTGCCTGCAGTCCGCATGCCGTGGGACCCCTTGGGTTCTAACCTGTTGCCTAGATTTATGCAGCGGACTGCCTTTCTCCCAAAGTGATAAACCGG…AGGTTGGTTTCACT; site = the 11-nt donor;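 further: IS621 bridge recombinase in Escherichia coli cells against a fixed T5 target plasmid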
PROPERTY: recombinant UMI read abundance (log10)
Numbers only.

>>> endpoint_result("CTGAAAACATGGACCGGTTTTCCCGGTAATCCGTATTTGCA (site CTGAAAACTTG)")
1.48
>>> endpoint_result("CCTTCTCCATGGACCGGTTTTCCCGGTAATCCGTATTTGTG (site CCTTCTCCTCA)")
0.0156
>>> endpoint_result("CGTTTGACATGGACCGGTTTTCCCGGTAATCCGTATTTGCT (site CGTTTGTCTAG)")
0
>>> endpoint_result("CGCACCGCATGGACCGGTTTTCCCGGTAATCCGTATTTGCA (site CGCACCGCTTG)")
2.35
>>> endpoint_result("AGTAGTGCATGGACCGGTTTTCCCGGTAATCCGTATTTGGT (site AGTAGTGCTAC)")
1.3
>>> endpoint_result("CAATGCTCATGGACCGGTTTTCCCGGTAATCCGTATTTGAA (site CAATGCGCTTT)")
0.0142
>>> endpoint_result("AGCTGAGCATGGACCGGTTTTCCCGGTAATCCGTATTTGGG (site AGCTCAGCTCC)")
0

API: the following record is the query input.
Would you mind telling me what recombinant UMI read abundance (log10) value was observed for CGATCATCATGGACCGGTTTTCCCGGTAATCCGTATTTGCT (site GGATCACCTAG) ?
0.00443
